System: LHPP gene
METHOD: High-throughput screening of saRNAs targeting LHPP promoter: LHPP mRNA by one-step RT-qPCR in Huh7 cells
Assay type: cell-based, human
CONDITION INFO: 10 nM saRNA, 72 hours, relative to control (Mock)
d = 2'-deoxy (DNA); r = 2'-OH (RNA)
REPORTED METRIC: Fold of changes in relative LHPP mRNA expression level (log2)

SUBSTANCE	MEASURED
RAG7-826: saRNA duplex; sense AGGAAACUCCUCCCUUUUATT (SEQ ID NO: 157), antisense UAAAAGGGAGGAGUUUCCUTT (SEQ ID NO: 321) (sugars from the 5' end r19 d2, backbone not given here)	0.15
RAG7-128: saRNA duplex; sense UUGUCCGCUGAUCUCCUGGTT (SEQ ID NO: 111), antisense CCAGGAGAUCAGCGGACAATT (SEQ ID NO: 275) (sugars from the 5' end r19 d2, backbone not given here)	0.26
RAG7-171: saRNA duplex; sense CUUUGACCUUUCUUAGGGATT (SEQ ID NO: 80), antisense UCCCUAAGAAAGGUCAAAGTT (SEQ ID NO: 244) (sugars from the 5' end r19 d2, backbone not given here)	0.34
RAG7-103: saRNA duplex; sense AGCUUCCGAAAAGGACACCTT (SEQ ID NO: 72), antisense GGUGUCCUUUUCGGAAGCUTT (SEQ ID NO: 236) (sugars from the 5' end r19 d2, backbone not given here)	0.37
